- Test system: MCF7 breast
- Experimental details: NCI tumour cell line growth inhibition, 48 h
Exercise: for every item that follows, state its recorded TGI.

Provide TGI, system MCF7 breast, entry COc1ccc(N=[N+]([O-])c2ccc(OC)cc2)cc1
> 100 µM

For MCF7 breast, give the measured TGI of the entry Cc1nc2c(=O)n3c4c(cccc4c2o1)CCC3
> 100 µM

Find TGI for CC(C)CCN[C@@H]1CCc2cc(O)c(N3CC(=O)NS3(=O)=O)c(F)c2C1 on MCF7 breast and write it down.
> 100 µM

Give MCF7 breast TGI for the following compound: O=C1Oc2cc3c(c4cccc1c24)O[C@H](c1ccccc1)[C@@H](c1ccccc1)[C@@H]3c1ccc(Cl)cc1
> 100 µM

Name the recorded TGI of C=CS(=O)(=O)CCN1CC1 , assay system MCF7 breast.
> 10 µM

# return TGI of O=C1OC(OCC#CCOC2OC(=O)C(Cl)=C2Cl)C(Cl)=C1Cl (stereo not drawn) (system: MCF7 breast)
21.8 µM

Give the observed TGI of CCCCNC(=S)/N=C/c1c(O)c2ccccc2[nH]c1=O for MCF7 breast.
> 10 µM

State, for MCF7 breast, measured TGI of the compound listed here: CCOP(=O)(OCC)/C(C#N)=C/c1c[nH]c2ccccc12
> 100 µM

With MCF7 breast as the test system, provide measured TGI for this compound: CC#CC(O)(C(=O)OC1CC2CCC(C1)N2C)C1CCCC1 (stereo not drawn)
> 100 µM

Provide the reported TGI (system: MCF7 breast) for CC(Br)C(=O)Nc1ccc(C(=O)O)c(O)c1 (stereo not drawn)
> 100 µM

With MCF7 breast as the test system, provide measured TGI for this compound: CC1OC(OC2C(Oc3cc(O)c4c(c3)O[C@H](c3ccc(O)cc3)CC4=O)OC(CO)C(O)C2O)C(O)C(O)C1O (stereo partly drawn)
> 100 µM

Give TGI only, for CC(C)COC(=O)c1ccc2[nH]c(O)c(C=Nc3ccc(S(N)(=O)=O)cc3)c2c1 , using MCF7 breast data.
4.5 µM

Look up and report measured TGI (MCF7 breast) for the following compound: COc1ccc(C2=CC(c3ccc(OC)c(OC)c3)c3c(c4ccccc4oc3=O)O2)cc1OC (stereo not drawn)
> 100 µM

Provide TGI, recorded with MCF7 breast, of CCOC(=O)C(=O)C(CCC(=O)c1ccc2ccccc2c1O)C(=O)OCC (stereo not drawn)
> 100 µM

Write down measured TGI (MCF7 breast) for this compound. Cc1cccc2c(N)c3ccccc3nc12
11.6 µM

Enter recorded TGI with MCF7 breast for CCc1cc2c(oc3cc(C)ccc32)c(=O)n1C here.
> 10 µM

Param request: TGI | system MCF7 breast | item O=C1c2ccccc2-c2c1c(-c1cccc(Br)c1)nc1ccc3ccccc3c21
> 100 µM

Enter recorded TGI with MCF7 breast for COCCOC(=O)C(C)=[N+]=[N-] here.
> 100 µM

# assay system MCF7 breast: give TGI of COc1ccc(NC2CC(C)N(C(=O)c3ccccc3)O2)cc1 (stereo not drawn)
> 10 µM

Report the value of TGI obtained on MCF7 breast for O=S(=O)(NCCNc1nccc(-c2c(-c3ccc(F)cc3)nc3sccn23)n1)c1ccccc1 .
> 100 µM

Given CC1=C(C(=O)OC(C)C)C(c2ccccc2C(F)(F)F)C(C(=O)OC(CO[N+](=O)[O-])CO[N+](=O)[O-])=C(C)N1 (stereo not drawn) , report its TGI on MCF7 breast.
72.2 µM

Write down the reported TGI (system: MCF7 breast) of C=CCCCc1ccc(C(O)CCCCCCCCCCCC)o1 (stereo not drawn)
48.3 µM

Fill in TGI for C=C1c2c(Cl)ccc(O)c2C(O)=C2C(=O)[C@]3(O)C(O)=C(C(N)=O)C(=O)[C@@H](N(C)C)[C@@H]3[C@@H](O)[C@H]12 tested with MCF7 breast.
6.66 µM

Tell me TGI of COc1cccc(-c2nc(-c3cnccn3)n(COCCO)n2)c1 when tested on MCF7 breast.
> 100 µM

Provide TGI, tested on MCF7 breast, for Cc1ccc(S(=O)(=O)NCCCSCCSCCCN)cc1 .
> 100 µM

Report TGI under test system MCF7 breast for CC(=O)c1cc(C)n2c1CS[C@@H]2c1ccccc1 .
> 100 µM

Given COC(=O)c1c(-c2ccccc2)c2sc3ccccc3n2c1N , report its TGI on MCF7 breast.
> 100 µM

Return reported TGI for target or system MCF7 breast, item CCN(CC)CCO/N=C1/C=C2CCC3C(CC[C@@]4(C)C3CC[C@]4(C)O)[C@@]2(C)CC1 (stereo partly drawn) .
80.1 µM

Recall the reported TGI of O=C(/C=C(\O)c1ccccc1)c1cc(-c2ccccc2)n(-c2ccccc2)n1 when tested on MCF7 breast.
> 100 µM

Recall the reported TGI of CCCNc1nc2ccccc2c2c1S(=O)(=O)c1ccc(Cl)cc1C2=O on MCF7 breast and write it down.
> 50 µM

Retrieve TGI on MCF7 breast; query Cc1ccc2c(=O)cc(-c3sc4ccccc4c3C)[nH]c2n1
> 100 µM

Write down the reported TGI (system: MCF7 breast) of Cn1c(=O)c(Oc2ccc(F)cc2F)cc2cnc(NCCS(C)(=O)=O)nc21
> 25 µM

Report its TGI with MCF7 breast as the test system: COc1ccc(Nc2c3ccccc3nc3[nH]c4ccccc4c23)cc1
> 50 µM

Report its TGI with MCF7 breast as the test system: C[C@]12CC[C@H](O)CC1=CC[C@@H]1C2CC[C@]2(C)Nc3c(cnn3-c3ccc(F)cc3)CC12 (stereo partly drawn)
> 100 µM

Give measured TGI for Cc1cc2c(cc1Cl)SC(NNc1ccc([N+](=O)[O-])cc1)=NS2(=O)=O (MCF7 breast).
> 10 µM

Fill: TGI (MCF7 breast) for this compound Cc1cc2c(cc1N)C(C)C1(CCC(=O)N2Cc2ccccc2)OCCO1 (stereo not drawn)
> 100 µM

State measured TGI of the compound COc1cc(C(=O)Oc2c(C#N)sc3c2c(=O)n(-c2ccccc2)c(=S)n3-c2ccccc2)cc(OC)c1OC with MCF7 breast.
57.1 µM

System MCF7 breast. Read-out TGI. Item C/C=C(\C)C(=O)N[C@H]1C(O)C[C@]2(C)C3CC[C@@]4(C)C(CC[C@@H]4C(C)N(C)C)C3CCC2C1O (stereo partly drawn) . Report value.
17.4 µM

Report measured TGI on MCF7 breast; entry: Cc1cc(OCc2nnc3n2N=C(c2ccc(Cl)cc2Cl)CS3)ccc1Cl
> 100 µM

Answer with TGI of CC1=NN=C(N)NC1=CC(Sc1ccc(Cl)cc1)c1c(O)ccc2ccccc12 (stereo not drawn) measured for MCF7 breast.
73.9 µM

Write TGI of CSc1cccc(NC(=O)OC2CCCCCCCCCCC2)c1 ; system used: MCF7 breast
60.4 µM

Provide TGI, recorded with MCF7 breast, of O=C(N/N=C\C(F)(F)F)c1ccncc1
> 100 µM

Determine reported TGI for O=C(Nc1ccc(Cl)c(Cl)c1)OCCN1c2ccccc2Sc2ccccc21 ; test system: MCF7 breast.
> 10 µM

* * *

What TGI was measured for each of the following?
- Tested on: HL-60(TB) leukemia
- Experimental details: NCI tumour cell line growth inhibition, 48 h
# value in µM; strip the unit string

Answer with reported TGI of CN(C)Cc1cc(N=Nc2ccc(Cl)cc2)ccc1OC(=O)c1ccccc1
43.7

Give me measured TGI, please, for this compound: CC(=O)O[C@@H](C1C[C@@H](C)[C@H]2[C@@](O)(O1)[C@H](O)[C@@]1(C)C3=CC[C@H]4C(C)(C)[C@@H](OC5OCC(O)C(O)C5O)CC[C@@]45C[C@@]35CC[C@]21C)C(C)(C)O (some centres undefined)
15.3

* * *

Quantity: GI50

Report the value of GI50 obtained on HCC-2998 colon for COc1cc2c3c(n(CCCN=[N+]=[N-])c(=O)c2cc1OC)-c1ccc(N(C)C)cc1C3=O .
> 100 µM

Answer with GI50 of ClCc1ccc(Cn2cnc3c(Cl)nc(Cl)nc32)cc1 measured for HCC-2998 colon.
10.3 µM

Under HCC-2998 colon: report GI50 of Oc1ccc(Cl)cc1CNc1nc2ccccc2[nH]1 .
16.5 µM

Tell me GI50 of O=C1NCCS(=O)(=O)/C1=C\C=C\c1cccc(C(F)(F)F)c1 when tested on HCC-2998 colon.
1.93 µM

Print HCC-2998 colon GI50 for COc1cc(/C=C/C(=O)c2cccnc2Nc2ccc(F)cc2)cc(OC)c1OC .
1.78 µM

# assay system HCC-2998 colon: give GI50 of CCCNc1nc2ccccc2c2c1S(=O)(=O)c1ccc(Cl)cc1C2=O
1.62 µM

Specify the recorded GI50 for Cc1c(Sc2ccccc2)[n+](=O)c2cc(Cl)c(Cl)cc2n1[O-] , system: HCC-2998 colon.
34.1 µM

Quote GI50 with test system HCC-2998 colon for C/C=C(\C)C(=O)N[C@H]1C(O)C[C@]2(C)C3CC[C@@]4(C)C(CC[C@@H]4C(C)N(C)C)C3CCC2C1O (stereo partly specified)
4.16 µM

Send back HCC-2998 colon GI50 of O=S(=O)(NCCNc1nccc(-c2c(-c3ccc(F)cc3)nc3sccn23)n1)c1ccccc1 only.
22.4 µM

Provide GI50, tested on HCC-2998 colon, for CC(C)COC(=O)c1ccc2[nH]c(O)c(C=Nc3ccc(S(N)(=O)=O)cc3)c2c1 .
3.27 µM

Please report the measured GI50 for COc1ccc(OC)c(Nc2nc(-c3c(C)nc4sccn34)cs2)c1 tested on HCC-2998 colon.
> 100 µM
